# credit: patent US20260151494A1

Catalogue of RLU values
# tested.on: apical domain of CD71 (Screen 3: 'cynomolgus apical domain of human CD71') (cynomolgus (as paragraph 454 words it; ambiguous))
# measurement.description: primary ELISA
Field format: number, assumed RLU, no unit text.

Solved entries:
binder	result
CD71-binding FN3 domain SEQ ID NO: 304 (designed binder) MSLPAPKNLVVSRVTEDSARLSWTAPDAAFDSFEIGYFENLYLGEAIVLTVPGSERSYDLTGLKPGTEYVVFIGGVKGGVWSVPLSAIFTT	5.5e+06
CD71-binding FN3 domain SEQ ID NO: 270 (designed binder) MSLPAPKNLVVSRVTEDSARLSWTAPDAAFDSFFIGYLEPQPPGEAIHLYVPGSERSYDLTGLKPGTEYNVTIQGVKGGFPSEPLIANSTT	6.3e+06
CD71-binding FN3 domain SEQ ID NO: 238 (designed binder) MSLPAPKNLVVSRVTEDSARLSWTAPDAAFDSFEIGYFENDYFGEAIVLTVPGSERSYDLTGLKPGTEYVVFIGGVKGGKWSAPLSAIFTT	6.39e+06

With those in mind, consider the next binder.
// RLU value for CD71-binding FN3 domain SEQ ID NO: 278 (designed binder) MSLPAPKNLVVSRVTEDSARLSWTAPDAAFDSFEIGYFENLYLGEAIVLTVPGSERSHDLTGLKPGTEYWVQIGGVKGGNWSAPLSAIFTT : 5.1e+06
